assay: Bidirectional transport across MDCK monolayer cells; assay type: in vitro ADME, canine; settings: dog, pH 7.4, 55.6 μM 5e, 1 h, mean ± SD, n = 3
observed-property: Papp A→B at 1 h, 55.6 μM (×10⁻⁶ cm/s)

[[record]]
molecule = "Br.NC1=NN=C(c2cc(NC(=O)c3cccc4ccccc34)ccc2OCc2ccccc2)CS1 [5e]"
reported_result = 28.2


###

system: P-gp (MDR1); assay: Bidirectional transport across MDCK-MDR1 monolayer cells; assay type: in vitro ADME, canine; conditions: dog, pH 7.4; MDCK-MDR1, 55.6 μM 5e, 1 h, mean ± SD, n = 3
observed-property: Papp B→A at 1 h, 55.6 μM

[[record]]
cpd_smiles = "Br.NC1=NN=C(c2cc(NC(=O)c3cccc4ccccc34)ccc2OCc2ccccc2)CS1"
reported_result = "22.2 ×10⁻⁶ cm/s"


###

Assay: Bidirectional transport across MDCK monolayer cells
Format: in vitro ADME, canine
Conditions: dog, pH 7.4, Papp(B-A)/Papp(A-B)
Excerpt: Blood-brain barrier (BBB) permeation is critical for any AD therapeutic drug. Madin-Darby canine kidney cell line (MDCK) was obtained from Peking Union Medical College (Beijing, China). The MDR1-transfected MDCK-MDR1 cells were established in Prof. […]
observed-property: efflux ratio at 1 h, 55.6 μM

[[record]]
compound = "Br.NC1=NN=C(c2cc(NC(=O)c3cccc4ccccc34)ccc2OCc2ccccc2)CS1 [5e]"
reported_result = 0.98


###

system: P-gp (MDR1); experiment: Bidirectional transport across MDCK-MDR1 monolayer cells; format: in vitro ADME, canine; conditions: dog, pH 7.4; MDCK-MDR1, 55.6 μM 5e, 1 h, mean ± SD, n = 3
observed-property: Papp A→B at 1 h, 55.6 μM

[[record]]
cpd_smiles = "Br.NC1=NN=C(c2cc(NC(=O)c3cccc4ccccc34)ccc2OCc2ccccc2)CS1"
observed_property = "Papp A→B at 1 h, 55.6 μM"
reported_result = "31.8 ×10⁻⁶ cm/s"


###

experiment: Bidirectional transport across MDCK monolayer cells; assay type: in vitro ADME, canine; conditions: dog, pH 7.4, 55.6 μM 5e, 1 h, mean ± SD, n = 3
observed-property: Papp B→A at 1 h, 55.6 μM

[[record]]
cpd_smiles = "Br.NC1=NN=C(c2cc(NC(=O)c3cccc4ccccc34)ccc2OCc2ccccc2)CS1"
reported_result = "27.7 ×10⁻⁶ cm/s"


###

test system: P-gp (MDR1); experiment: Bidirectional transport across MDCK-MDR1 monolayer cells; format: in vitro ADME, canine; conditions: dog, MDCK-MDR1, pH 7.4, MDCK-MDR1 versus MDCK; read-out: Net efflux ratio
observed-property: efflux ratio at 1 h, 55.6 μM

[[record]]
cpd_smiles = "Br.NC1=NN=C(c2cc(NC(=O)c3cccc4ccccc34)ccc2OCc2ccccc2)CS1"
observed_property = "efflux ratio at 1 h, 55.6 μM"
reported_result = 0.71


###

# IC50 listing for each entry below
biological target: BACE-1 (Homo sapiens, UniProt P56817); construct: host or cells: insect cells; assay: BACE-1 inhibition, fluorescence resonance energy transfer (FRET) assay; assay type: biochemical; conditions: BACE-1 FRET assay
Sequence (P56817 46-501): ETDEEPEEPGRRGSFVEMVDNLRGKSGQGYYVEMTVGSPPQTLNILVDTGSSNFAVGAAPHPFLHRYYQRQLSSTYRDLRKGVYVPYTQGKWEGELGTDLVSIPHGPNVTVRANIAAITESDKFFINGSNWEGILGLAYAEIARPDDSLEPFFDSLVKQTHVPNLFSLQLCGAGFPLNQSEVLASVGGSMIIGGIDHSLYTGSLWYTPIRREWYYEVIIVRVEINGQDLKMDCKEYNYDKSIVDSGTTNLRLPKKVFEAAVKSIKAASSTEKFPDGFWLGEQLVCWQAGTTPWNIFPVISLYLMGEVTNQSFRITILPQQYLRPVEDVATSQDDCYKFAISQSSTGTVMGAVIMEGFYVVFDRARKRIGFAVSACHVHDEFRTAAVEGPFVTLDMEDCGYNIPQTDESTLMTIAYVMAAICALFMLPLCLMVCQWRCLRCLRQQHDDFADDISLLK
observed-property: IC50 (µM)

[[record]]
compound = "Br.NC1=NN=C(c2cc(NC(=O)c3ccc(Cl)cc3)ccc2OCc2ccccc2)CS1 [5b]"
target_system = "BACE-1 (Homo sapiens, UniProt P56817)"
result_unit = "µM"
readout_relation = ">"
reported_result = 20

[[record]]
compound = "Br.NC1=NN=C(c2cc(NC(=O)c3cccc4ccccc34)ccc2OCc2ccccc2)CS1 [5e]"
target_system = "BACE-1 (Homo sapiens, UniProt P56817)"
result_unit = "µM"
readout_relation = "="
reported_result = 9.9

[[record]]
compound = "Nc1nc(-c2cc(NC(=O)c3cccc4ccccc34)ccc2OCc2ccccc2)cs1 [3e]"
target_system = "BACE-1 (Homo sapiens, UniProt P56817)"
result_unit = "µM"
readout_relation = ">"
reported_result = 20

[[record]]
compound = "Br.COc1ccc(C(=O)Nc2ccc(OCc3ccccc3)c(C3=NN=C(N)SC3)c2)cc1 [5d]"
target_system = "BACE-1 (Homo sapiens, UniProt P56817)"
result_unit = "µM"
readout_relation = ">"
reported_result = 20

[[record]]
compound = "Br.NC1=NN=C(c2cc(NC(=O)c3ccccc3)ccc2OCc2ccccc2)CS1 [5a]"
target_system = "BACE-1 (Homo sapiens, UniProt P56817)"
result_unit = "µM"
readout_relation = "="
reported_result = 16.7

